TARGET_OF_ASSAY: Luciferin 4-monooxygenase (Photinus pyralis, UniProt P08659)
MEASUREMENT_DESCRIPTION: firefly luciferase enzyme inhibitors, dose response, biochemical, luminescence (AID 1891)
I'd appreciate it if you could supply EC50 values for the items below.

QUERY: Quick check: EC50 of O=C(Nc1ccccc1)c1cnc2ccccc2n1 ?
RESULT: > 112 µM (not active)

QUERY: Quick check: EC50 of Cc1[nH]c(=S)c(C#N)c(C)c1CCC#N ?
RESULT: > 112 µM (not active)

QUERY: Quick check: EC50 of Cc1ccc(S(=O)(=O)NCC2CCC(C(=O)NCc3ccc4c(c3)OCO4)CC2)cc1 (stereo not drawn) ?
RESULT: > 112 µM (not active)

====

Tested on: H9c2;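 further: cell death induced by hydrogen peroxide oxidative stress; compound pretreatment for 60 min then peroxide exposure for 2 h; potency is for protecting the cells against peroxide damage rather than for killing them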;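 further: confirmatory concentration-response retest of ultra-high-throughput screening hits for modulation of myocardial damage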
MEASUREMENT_DESCRIPTION: cells
Format: functional, cell-based
COND: Rattus norvegicus, H9c2, Myocardium
Calls of active or inactive are those of the source.
Output constraint: value belongs to active, inactive

QUERY: # lookup: test call for CCC(c1nnnn1Cc1ccco1)N(Cc1cc2cc(C)cc(C)c2nc1O)CC1CCCO1 (stereo not given)
RESULT: inactive

QUERY: # lookup: test call for O=C(CCc1nc(O)c2ccccc2n1)NNC(=O)c1ccccc1Cl
RESULT: active

QUERY: # lookup: test call for Nc1nonc1-n1nnc(C(=O)N/N=C/c2ccccn2)c1CNc1ccccc1
RESULT: active

QUERY: # lookup: test call for Oc1ccc(NCc2nnc(O)c3ccccc23)cc1
RESULT: inactive

QUERY: # lookup: test call for Cc1ccc(C(C(=O)NCc2ccccc2)N(Cc2ccco2)C(=O)c2snc(C(N)=O)c2N)o1 (stereo not given)
RESULT: inactive

====

TARGET_OF_ASSAY: Cytochrome P450 2C19 (Homo sapiens, UniProt P33261)
Sequence (P33261 whole entry): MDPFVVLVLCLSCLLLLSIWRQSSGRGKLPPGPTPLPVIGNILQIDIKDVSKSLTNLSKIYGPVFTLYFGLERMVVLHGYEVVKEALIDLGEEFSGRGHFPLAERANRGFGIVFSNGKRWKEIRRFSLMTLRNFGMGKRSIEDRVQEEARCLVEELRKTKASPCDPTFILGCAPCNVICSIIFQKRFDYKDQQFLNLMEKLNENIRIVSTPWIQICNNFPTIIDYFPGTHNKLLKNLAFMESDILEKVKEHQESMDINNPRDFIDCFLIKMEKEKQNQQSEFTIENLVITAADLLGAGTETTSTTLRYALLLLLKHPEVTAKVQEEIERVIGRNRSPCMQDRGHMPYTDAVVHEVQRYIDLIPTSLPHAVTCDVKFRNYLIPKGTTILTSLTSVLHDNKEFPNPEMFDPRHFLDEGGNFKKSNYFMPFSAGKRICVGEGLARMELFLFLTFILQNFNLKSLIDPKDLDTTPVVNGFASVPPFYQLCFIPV
MEASUREMENT_DESCRIPTION: Cytochrome panel assay with activity outcomes. Panel member name: p450-cyp2c19 Compounds with AC50 equal or less than 10 uM are considered active
Type: functional
COND: read-out: AC50
I'd appreciate it if you could supply AC50 values for the items below.

QUERY: Quick check: AC50 of CCOC(=O)c1ccccc1NC(=O)CSc1cccc[n+]1[O-] ?
RESULT: 22.4 µM (inconclusive)

QUERY: Quick check: AC50 of CCCCN1C(=O)C(NC(=O)CC(C)C)(C(F)(F)F)C2=C1CC(C)(C)CC2=O (configuration not stated) ?
RESULT: 25.1 µM (inconclusive)

QUERY: Quick check: AC50 of Cc1cc(OC(=O)c2ccc(Cl)cc2Cl)nc(C)n1 ?
RESULT: 28.2 µM (inconclusive)

QUERY: Quick check: AC50 of COCCn1c(=O)c(-c2ccc(Cl)cc2)nc2cncnc21 ?
RESULT: 39.8 µM (inconclusive)

QUERY: Quick check: AC50 of CC1(CCC#N)N=C(SCCC#N)N(c2ccccc2)C1=O (configuration not stated) ?
RESULT: 25.1 µM (inconclusive)

QUERY: Quick check: AC50 of CCCCNc1nc(SC)nc2[nH]cnc12 ?
RESULT: 3.16 µM (inconclusive)

QUERY: Quick check: AC50 of C(=N\n1cnnc1)/c1cccn1-c1ccccc1 ?
RESULT: 0.0251 µM (inconclusive)

====

TARGET_OF_ASSAY: Caspase-3 (Homo sapiens, UniProt P42574);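 further: Dose-response selectivity test against caspase-3 for candidate inhibitors of sentrin-specific proteases (SENPs)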
Assay type: functional
The source made the active and inactive calls.
METRIC_NAME: IC50

QUERY: Quick check: IC50 of C/C(=N\OC(=O)c1ccc(Br)cc1)c1ccccn1 ?
RESULT: 1.26 µM (active)

QUERY: Quick check: IC50 of COc1ccc(/C=N/Nc2cc(N3CCCC3)nc(N3CCCC3)n2)cc1 ?
RESULT: > 100 µM (inactive)

QUERY: Quick check: IC50 of N#Cc1ccsc1NC(=O)CSc1nnnn1-c1ccc(O)cc1 ?
RESULT: 20.6 µM (active)

QUERY: Quick check: IC50 of C/C(=N\Nc1ccc([N+](=O)[O-])cc1)c1ccco1 ?
RESULT: 18.4 µM (active)

QUERY: Quick check: IC50 of Cc1cccc(-n2ncc3c(N4CCC(C)CC4)ncnc32)c1 ?
RESULT: 19.5 µM (active)

QUERY: Quick check: IC50 of COc1cccc(C(=O)Oc2ccc(/C=N/Nc3ccc(C(=O)O)cc3)cc2OC)c1 ?
RESULT: 74.2 µM (active)

QUERY: Quick check: IC50 of Oc1ccc(/C=N/Nc2cc(N3CCCC3)nc(N3CCCC3)n2)cc1 ?
RESULT: > 100 µM (inactive)

====

I'd appreciate it if you could supply EC50 values for the items below.
MEASUREMENT_DESCRIPTION: Luminescence Cell-Based Dose Confirmation HTS to Identify Activators of 5'UTR Stem-Loop Driven Alpha-Synuclein mRNA Translation in H4 Neuroglioblastoma Cells. [Related pubchem assays: 1829 (Project Summary), 1814 (Primary HTS)]
Assay type: functional
Calls of active or inactive are those of the source.

QUERY: Quick check: EC50 of CC(Sc1nncn1C)C(=O)Nc1nnc(-c2ccccc2)s1 (centres undefined) ?
RESULT: 19.1 µM (active)

QUERY: Quick check: EC50 of Cc1ccc(C(=O)CC(=O)c2ccccc2)cc1 ?
RESULT: 5.35 µM (active)

QUERY: Quick check: EC50 of COc1ccc(C2CC(c3ccc4ccccc4c3)=NN2C(=O)CN2CCC(C(N)=O)CC2)cc1 (centres undefined) ?
RESULT: 15.6 µM (active)

QUERY: Quick check: EC50 of O=C(CSc1nnc2ccccn12)N1CCc2ccccc2C1 ?
RESULT: 13.1 µM (active)

====

MEASUREMENT_DESCRIPTION: P. falciparum ATP4 D1247Y mutant growth inhibitors, dose response, NITD609-resistant line, SYBR Green, dry powder (AID 1159571);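 further: parasites synchronized at ring stage by sorbitol before testing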
Assay type: functional, cell-based
Calls of active or inactive are those of the source.
I'd appreciate it if you could supply AC50 values for the items below.

QUERY: Quick check: AC50 of C[C@H]1CN([C@@H](C)CO)C(=O)c2cc(C#Cc3cccc(F)c3)cnc2O[C@@H]1CN(C)C(=O)C1CCCCC1 ?
RESULT: 0.742 µM (active)

QUERY: Quick check: AC50 of CN(C)CC(=O)N1C[C@@H]2N[C@H](C1)[C@@H]2c1ccc(/C=C/c2ccccc2)cc1 ?
RESULT: 4.64 µM (active)

QUERY: Quick check: AC50 of CNC[C@@H]1Oc2cc(C#Cc3cccnc3)ccc2S(=O)(=O)N([C@H](C)CO)C[C@H]1C ?
RESULT: 0.984 µM (active)

QUERY: Quick check: AC50 of C[C@H](CO)N1C[C@H](C)[C@H](CN(C)C(=O)Cc2ccncc2)Oc2cc(C#CC3CCCC3)ccc2S1(=O)=O ?
RESULT: 4.96 µM (active)

====

TARGET_OF_ASSAY: Apoptotic protease-activating factor 1 (Homo sapiens, UniProt O14727)
Sequence (O14727 whole entry): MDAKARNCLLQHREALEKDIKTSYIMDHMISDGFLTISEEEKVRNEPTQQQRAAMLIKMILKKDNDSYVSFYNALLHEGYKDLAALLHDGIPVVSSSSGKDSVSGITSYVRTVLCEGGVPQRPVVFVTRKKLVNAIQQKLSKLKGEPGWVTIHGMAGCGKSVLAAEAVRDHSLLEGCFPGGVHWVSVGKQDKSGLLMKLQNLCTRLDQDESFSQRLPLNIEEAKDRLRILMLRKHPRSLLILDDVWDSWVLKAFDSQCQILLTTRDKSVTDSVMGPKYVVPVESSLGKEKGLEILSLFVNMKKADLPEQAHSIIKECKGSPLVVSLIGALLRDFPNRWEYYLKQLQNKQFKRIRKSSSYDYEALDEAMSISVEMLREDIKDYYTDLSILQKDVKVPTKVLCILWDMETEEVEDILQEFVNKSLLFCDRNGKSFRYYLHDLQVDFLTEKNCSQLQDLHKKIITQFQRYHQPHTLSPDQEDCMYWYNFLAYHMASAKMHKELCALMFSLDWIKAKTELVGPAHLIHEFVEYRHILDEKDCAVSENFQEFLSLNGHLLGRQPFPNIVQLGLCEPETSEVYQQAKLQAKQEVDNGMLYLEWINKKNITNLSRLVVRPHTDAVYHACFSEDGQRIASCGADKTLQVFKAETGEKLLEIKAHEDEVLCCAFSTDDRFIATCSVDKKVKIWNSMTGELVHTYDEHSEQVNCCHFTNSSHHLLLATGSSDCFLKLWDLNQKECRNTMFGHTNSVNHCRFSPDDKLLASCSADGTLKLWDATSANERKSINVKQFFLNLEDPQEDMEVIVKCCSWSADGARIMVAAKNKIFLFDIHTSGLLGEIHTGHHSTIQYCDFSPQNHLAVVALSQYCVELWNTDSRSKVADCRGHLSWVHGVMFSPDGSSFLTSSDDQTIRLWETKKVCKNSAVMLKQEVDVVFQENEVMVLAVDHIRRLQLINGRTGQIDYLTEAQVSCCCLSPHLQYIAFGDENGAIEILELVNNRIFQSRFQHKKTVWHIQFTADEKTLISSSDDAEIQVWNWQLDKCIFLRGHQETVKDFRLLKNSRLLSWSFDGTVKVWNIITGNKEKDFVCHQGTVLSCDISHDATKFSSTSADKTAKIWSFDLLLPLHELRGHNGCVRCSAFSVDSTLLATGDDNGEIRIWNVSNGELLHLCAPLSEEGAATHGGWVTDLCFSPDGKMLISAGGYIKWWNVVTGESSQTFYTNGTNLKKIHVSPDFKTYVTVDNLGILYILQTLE
Assay type: functional
Calls of active or inactive are those of the source.
METRIC_NAME: IC50

QUERY: API: value(readout=IC50, system=Apoptotic protease-activating factor 1 (Homo sapiens, UniProt O14727)) for record CC1=C(CC(=O)c2ccccc2)C(=O)c2ccccc2C1=O
RESULT: 28.8 µM (active)

QUERY: API: value(readout=IC50, system=Apoptotic protease-activating factor 1 (Homo sapiens, UniProt O14727)) for record COc1ccc(/C=N/Nc2cc(N3CCCC3)nc(N3CCCC3)n2)cc1
RESULT: 2.63 µM (active)

QUERY: API: value(readout=IC50, system=Apoptotic protease-activating factor 1 (Homo sapiens, UniProt O14727)) for record Oc1ccc(/C=N/Nc2cc(N3CCCC3)nc(N3CCCC3)n2)cc1
RESULT: 0.707 µM (active)

QUERY: API: value(readout=IC50, system=Apoptotic protease-activating factor 1 (Homo sapiens, UniProt O14727)) for record COc1ccc(S(=O)(=O)/N=C2\C=C(Nc3ccc(O)cc3)C(=O)c3ccccc32)cc1
RESULT: 0.441 µM (active)

QUERY: API: value(readout=IC50, system=Apoptotic protease-activating factor 1 (Homo sapiens, UniProt O14727)) for record CCCCCCCCCCCCCCCC[n+]1cccc(C(=O)N(CC)CC)c1
RESULT: 21.5 µM (active)

====

Test system: Streptococcus
MEASUREMENT_DESCRIPTION: Group A Streptococcus viability loss, dose response, counter-screen for streptokinase expression inhibitor project, luminescence, BacTiterGlo (AID 1915);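 further: potency for reduction of bacterial viability or growth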
Format: functional, organism-based
The source made the active and inactive calls.
METRIC_NAME: EC50

QUERY: Quick check: EC50 of N#Cc1ccc(C(=O)Nc2nc(SCc3ccc(Cl)cc3)n[nH]2)cc1 ?
RESULT: > 150 µM (not active)

QUERY: Quick check: EC50 of CCOC(=O)c1sc2nc3c(SCC(=O)O)cc(C(=O)c4cc(F)ccc4O)cn3c(=O)c2c1C ?
RESULT: 141 µM (active)

QUERY: Quick check: EC50 of Cc1ccccc1-n1cnc2cc(NCc3cccs3)ccc21 ?
RESULT: > 150 µM (not active)

QUERY: Quick check: EC50 of Cc1ccc(Oc2ccc3c(c2)C(=O)N(c2cccc4cccnc24)C3=O)cc1 ?
RESULT: > 150 µM (not active)

QUERY: Quick check: EC50 of CCCCCn1c(N)c(-c2nc3ccccc3s2)c2c([N+](=O)[O-])nn(CC)c(=O)c21 ?
RESULT: > 150 µM (not active)

QUERY: Quick check: EC50 of O=C(Nc1nc2ccccc2n1CCOc1ccccc1)c1ccco1 ?
RESULT: 9.64 µM (active)

QUERY: Quick check: EC50 of COc1cccc(N=Nc2c(N)nn3c(O)cc(-c4ccccc4)nc23)c1 ?
RESULT: 31.3 µM (active)

QUERY: Quick check: EC50 of Cc1cccc(C)c1-n1cccc1/C=C1\SC(=S)N(c2cccc(C(=O)O)c2)C1=O ?
RESULT: 8.78 µM (active)

QUERY: Quick check: EC50 of O=C(NCC1(N2CCCCC2)CCCCC1)c1cccc(NS(=O)(=O)c2ccccc2)c1 ?
RESULT: > 150 µM (not active)

QUERY: Quick check: EC50 of Cc1c(C(=O)Nc2nc3ccccc3[nH]2)oc2c(Cl)cccc12 ?
RESULT: 8.37 µM (active)
